- Tested on: Hela
- Procedure Text: Cell-Titer Glo Cell Growth Inhibition Assay, Hela
- Format: cell-based
- Condition: Homo sapiens, CellTiter-Glo, 72 h, read-out: CTG Hela IC50
Assignment: determine reported IC50 for the given compounds.

Please provide the recorded IC50 for CCN1CCN(CCCn2cc(-c3ccc4c(c3)ncn4-c3cc(O[C@H](C)c4ccccc4Cl)c(C(N)=O)s3)cn2)CC1 [Example 8] , tested on Hela.
< 0.1 µM

Form entry - test system: Hela; read-out: IC50; compound: C[C@@H](Oc1cc(-n2cnc3cc(-c4cnn(C)c4)ccc32)sc1C(N)=O)c1ccccc1Cl [Example 9]
< 0.1 µM

* * *

- System: HN5
- Procedure Text: Cell-Titer Glo Cell Growth Inhibition Assay, HN5
- Assay type: cell-based
- Condition: Homo sapiens, CellTiter-Glo, 72 h, read-out: CTG HN5 IC50
Please provide measured IC50 for the entries that follow.

Entry under review: "C[C@@H](Oc1cc(-n2cnc3cc(-c4cnn(C)c4)ccc32)sc1C(N)=O)c1ccccc1Cl" . Reported IC50?
< 0.1 µM

Recorded IC50 for "CCN1CCN(CCCn2cc(-c3ccc4c(c3)ncn4-c3cc(O[C@H](C)c4ccccc4Cl)c(C(N)=O)s3)cn2)CC1" , please?
< 0.1 µM

* * *

- Procedure Text: Intravenous pharmacokinetics in CD-1 mouse
- Type: in vivo
- Condition: plasma; iv bolus, male CD-1 mouse, dose 1.9-7.4 mg/kg per compound (Table 3)
Give measured AUC(0-t) for each item. Keep answers brief.
Write the number in ng·h/mL without appending the unit.

// query AUC(0-t) value for entry "C[C@@H](Oc1cc(-n2cnc3cc(-c4ccc(N5CCNCC5)nc4)ccc32)sc1C(N)=O)c1ccccc1Cl"
3740

Form field: reported AUC(0-t) of "C[C@@H](Oc1cc(-n2cnc3cc(-c4ccc(NC5CCN(C)CC5)nc4)ccc32)sc1C(N)=O)c1ccccc1Cl"
2780

Which AUC(0-t) value belongs to "C[C@@H](Oc1cc(-n2cnc3cc(-c4ccnc(N)c4)ccc32)sc1C(N)=O)c1ccccc1C(F)(F)F" ?
1170

Which AUC(0-t) is reported for this compound? "C[C@@H](Oc1cc(-n2cnc3cc(-c4ccnc(NC5CCN(C)CC5)c4)ccc32)sc1C(N)=O)c1ccccc1C(F)(F)F"
1850

* * *

- Procedure Text: Intravenous pharmacokinetics in CD-1 mouse
- Format: in vivo
- Condition: plasma; iv bolus, male CD-1 mouse, dose 1.9-7.4 mg/kg per compound (Table 3)
Could you please report measured AUC(0-t) for the items listed next?
I only need the number, in ng·h/mL, no unit after it.

Data request, read-out AUC(0-t), for "C[C@@H](Oc1cc(-n2cnc3cc(-c4ccc(N5CCNCC5)nc4)ccc32)sc1C(N)=O)c1ccccc1C(F)(F)F"
3420

Record request: AUC(0-t) value, item "C[C@@H](Oc1cc(-n2cnc3cc(-c4ccnc(N5CCN(C)CC5)c4)ccc32)sc1C(N)=O)c1ccccc1C(F)(F)F"
2200

Which AUC(0-t) is reported for this compound? "C[C@@H](Oc1cc(-n2cnc3cc(-c4cn[nH]c4)ccc32)sc1C(N)=O)c1ccccc1C(F)(F)F"
1370

Which AUC(0-t) is listed for "C[C@@H](Oc1cc(-n2cnc3cc(-c4cnn(C)c4)ccc32)sc1C(N)=O)c1ccccc1Cl" ?
5760

What does the data say about its AUC(0-t)? Entry: "CCN1CCN(CCCn2cc(-c3ccc4c(c3)ncn4-c3cc(O[C@H](C)c4ccccc4Cl)c(C(N)=O)s3)cn2)CC1"
1410
